Biological target: T1, human MHC class II DR protein (DRA*0101/DRB1*0401), purified from PRIESS cells (human, UniProt P01903 26-254; P01911 30-266, limits assumed)
T1 construct: mature; also called HLA-DR protein; MHCII
T1 MHC II alpha: not shown
T1 MHC II beta: not shown
Test: SPR (BIAcore), chip density 4000 RU MHCII
pKd: −log10 of the molar value.
The binders listed here are annotated with their pKd.

{"binder": "MS-GPC-8-1 Fab (Fab, V domains shown, Fab: VH-CH1 with FLAG tag and STREP tag II, VL-CL; VH residue 1 is Q in Fab) VH: QVQLKESGPALVKPTQTLTLTCTFSGFSLSTSGVGVGWIRQPPGKALEWLALIDWDDDKYYSTSLKTRLTISKDTSKNQVVLTMTNMDPVDTATYYCARSPRYRGAFDYWGQGTLVTVSS VL: DIVLTQPPSVSGAPGQRVTISCSGSSSNIGSNYVSWYQQLPGTAPKLLIYDNNQRPSGVPDRFSGSKSGTSASLAITGLQSEDEADYYCQSYDFSHYVFGGGTKLTVLG", "pKd": 6.97}
{"binder": "MS-GPC-8-9 Fab (Fab, V domains shown, Fab: VH-CH1 with FLAG tag and STREP tag II, VL-CL; VH residue 1 is Q in Fab) VH: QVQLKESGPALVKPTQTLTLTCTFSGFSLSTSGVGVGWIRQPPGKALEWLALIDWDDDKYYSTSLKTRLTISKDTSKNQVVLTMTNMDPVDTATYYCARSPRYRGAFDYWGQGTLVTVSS VL: DIVLTQPPSVSGAPGQRVTISCSGSSSNIGSNYVSWYQQLPGTAPKLLIYDNNQRPSGVPDRFSGSKSGTSASLAITGLQSEDEADYYCQSYDIQLHVFGGGTKLTVLG", "pKd": 7.05}
{"binder": "MS-GPC-8-17 Fab (Fab, V domains shown, Fab: VH-CH1 with FLAG tag and STREP tag II, VL-CL; VH residue 1 is Q in Fab; also called 7BA) VH: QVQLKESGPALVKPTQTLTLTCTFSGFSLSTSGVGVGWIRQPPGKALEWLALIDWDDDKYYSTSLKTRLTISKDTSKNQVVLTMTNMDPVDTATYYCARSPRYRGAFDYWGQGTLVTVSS VL: DIVLTQPPSVSGAPGQRVTISCSGSSSNIGSNYVSWYQQLPGTAPKLLIYDNNQRPSGVPDRFSGSKSGTSASLAITGLQSEDEADYYCQSYDFSVYVFGGGTKLTVLG", "pKd": 7.26}
{"binder": "MS-GPC-8-18 Fab (Fab, V domains shown, Fab: VH-CH1 with FLAG tag and STREP tag II, VL-CL; VH residue 1 is Q in Fab) VH: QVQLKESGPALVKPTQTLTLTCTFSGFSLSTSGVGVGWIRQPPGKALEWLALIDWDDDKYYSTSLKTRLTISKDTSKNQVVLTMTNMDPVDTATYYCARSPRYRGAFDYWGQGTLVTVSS VL: DIVLTQPPSVSGAPGQRVTISCSGSSSNIGSNYVSWYQQLPGTAPKLLIYDNNQRPSGVPDRFSGSKSGTSASLAITGLQSEDEADYYCQSYDFSIYVFGGGTKLTVLG", "pKd": 7.11}

These data points were gathered from patent US7521047.
